Tested on: HCC-2998 colon
Assay: NCI tumour cell line growth inhibition, 48 h
Listing: TGI of selected compounds
reportedProperty: TGI (µM)

molecule: Cc1c2c(C(N)=O)nccc2c(C)c2c1c1ccccc1n2Cc1ccccc1
valueUnit: µM
measurementQualifier: =
reportedValue: 73.1

molecule: COc1cc(/C=N\O[Si](C)(C)C(C)(C)C)ccc1O[Si](C)(C)C(C)(C)C
valueUnit: µM
measurementQualifier: =
reportedValue: 56.8

molecule: Cc1c(Cl)cccc1NC(=O)c1cccc([N+](=O)[O-])c1O
valueUnit: µM
measurementQualifier: =
reportedValue: 78.6

molecule: CC1(C)N=C(N)N=C(N)N1c1cccc(OCCOc2cccc([N+](=O)[O-])c2)c1
valueUnit: µM
measurementQualifier: >
reportedValue: 100

molecule: NCCCN(CCCN)CCc1cn(C(=O)c2ccccc2)cn1
valueUnit: µM
measurementQualifier: =
reportedValue: 19

###

System: KM12 colon
Test: NCI tumour cell line growth inhibition, 48 h
reportedProperty: TGI (µM)

compound: CC(=O)OCCOCNC(=S)N/N=C/c1ccc([N+](=O)[O-])s1
testedTarget: KM12 colon
measurementQualifier: >
reportedValue: 100
--
compound: CCOC(=O)C(Cc1ccc(O)cc1)Nc1nc(=O)c2c(=O)oc(Cl)cc2o1 (stereo not given)
testedTarget: KM12 colon
measurementQualifier: =
reportedValue: 22.5
--
compound: O=[N+]([O-])c1c(F)c(F)c2c(c1F)N(CCCCCl)c1ccccc1S2
testedTarget: KM12 colon
measurementQualifier: =
reportedValue: 23.5
--
compound: CCCCC1Cc2cc(O)ccc2-c2nc3cc(O)ccc3n21 (stereo not given) (tested in a mixture with another compound)
testedTarget: KM12 colon
measurementQualifier: =
reportedValue: 75.1
--
compound: COc1cc(Nc2nc3cc(C(F)(F)F)ccc3nc2C(=O)O)cc(OC)c1OC
testedTarget: KM12 colon
measurementQualifier: >
reportedValue: 100

###

Test system: SN12C renal
Test: NCI tumour cell line growth inhibition, 48 h; in the data active means GI50 below about 0.43 µM; inactive means the rest
Classes used: true (1) (active), false (0) (inactive)

compound: Cn1cc(-c2csc(-c3cn(C)c4ccc(F)cc34)n2)c2cnccc21
classAssignment: false (0)

compound: CC(=O)[CH-]C(=O)c1ccccc1.CC(=O)[CH-]C(=O)c1ccccc1.O=S(=O)([O-])c1cc([O-])c2c([O-])cc(S(=O)(=O)[O-])cc2c1.[Na+].[Ti+4]
classAssignment: false (0)

compound: NCCN.O=C([O-])[O-].O=C([O-])[O-].[Co+3].[K+]
classAssignment: false (0)

compound: O=C(NC1CCCCC1)c1ccc(Nc2ncnc3c2cnn3-c2ccccc2)cc1
classAssignment: false (0)

compound: COc1cc(C(=O)O[C@H](C(N)=O)[C@]2(C)CO2)c2cccc(C)c2c1
classAssignment: true (1)

compound: COC(=O)[C@]12CC[C@@H](C)[C@H](C)[C@@H]1C1=CC[C@@H]3[C@@]4(C)C(C=O)=C[C@@](C)(COC(=O)c5ccco5)[C@@H]4[C@H](O)C[C@@]3(C)[C@]1(C)CC2
classAssignment: false (0)

compound: COc1ccc(-c2nn(-c3cccc(Cl)c3)cc2-c2nc(N)[nH]c(=O)c2C#N)cc1
classAssignment: false (0)

compound: C=C(C)[C@@H]1CC[C@]2(C)[C@H](CC[C@@H]3[C@@H]([C@@](C)(O)CCC=C(C)C)CC[C@]32C)[C@@]1(C)CCC(=O)O
classAssignment: false (0)

compound: CNC(C)[C@H]1CCC2C3CC=C4C(=O)[C@@H](NC(=O)C=C(C)C)CC[C@]4(C)C3CC[C@@]21C (stereo not given in full)
classAssignment: false (0)

compound: CC(=O)c1ccc2c(c1)C(=O)c1sc(C(C)=O)cc1C2=O
classAssignment: false (0)
